System tested: Peroxisome proliferator-activated receptor gamma (Homo sapiens)
Sequence (whole entry): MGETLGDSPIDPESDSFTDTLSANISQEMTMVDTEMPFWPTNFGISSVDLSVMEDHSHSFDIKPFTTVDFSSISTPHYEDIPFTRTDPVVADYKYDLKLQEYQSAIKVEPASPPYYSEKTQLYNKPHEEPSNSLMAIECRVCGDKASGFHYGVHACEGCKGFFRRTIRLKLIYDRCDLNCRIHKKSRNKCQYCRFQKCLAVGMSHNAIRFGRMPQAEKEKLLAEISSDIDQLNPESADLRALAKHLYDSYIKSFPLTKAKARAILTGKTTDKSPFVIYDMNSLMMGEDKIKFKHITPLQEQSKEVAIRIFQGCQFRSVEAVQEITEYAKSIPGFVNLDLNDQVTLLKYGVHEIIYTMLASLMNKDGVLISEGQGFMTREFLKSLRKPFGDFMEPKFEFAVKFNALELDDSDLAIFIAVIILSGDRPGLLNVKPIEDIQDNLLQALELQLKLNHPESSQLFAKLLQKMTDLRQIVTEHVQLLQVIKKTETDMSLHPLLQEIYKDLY
Protocol text: Agonist activity at PPARgamma (unknown origin) expressed in human HepG2 cells cotransfected with PPREaP2-tk at 25 ug/ml after 24 hrs by luciferase reporter gene assay relative to control
Type: cell-based
The source made the active and inactive calls. The calls are words filed in the database; no cut-off is given here.
Property label: Activity

# Compound, System tested, Result
measured = [
    ("COc1ccc2c(c1)OC[C@H](c1ccc(O)cc1O)[C@H]2O", "Peroxisome proliferator-activated receptor gamma (Homo sapiens)", "inactive"),
    ("O=C(O)CCc1ccccc1O[C@@H]1O[C@H](CO)[C@@H](O)[C@H](O)[C@H]1O", "Peroxisome proliferator-activated receptor gamma (Homo sapiens)", "inactive"),
    ("C[C@@H]1O[C@@H](Oc2cc(O)c3c(=O)c(O[C@@H]4O[C@@H](C)[C@H](O)[C@@H](O)[C@H]4O)c(-c4ccc(O)c(O)c4)oc3c2)[C@H](O)[C@H](O)[C@H]1O", "Peroxisome proliferator-activated receptor gamma (Homo sapiens)", "inactive"),
    ("COc1ccc2c(c1)OC(OC)C(c1ccc(O)cc1O)[C@H]2O (single isomer, unassigned)", "Peroxisome proliferator-activated receptor gamma (Homo sapiens)", "inactive"),
    ("O=c1cc(-c2ccc(O)cc2)oc2cc(O)ccc12", "Peroxisome proliferator-activated receptor gamma (Homo sapiens)", "inactive"),
]

----------
System tested: Peroxisome proliferator-activated receptor gamma (Homo sapiens)
Sequence (whole entry): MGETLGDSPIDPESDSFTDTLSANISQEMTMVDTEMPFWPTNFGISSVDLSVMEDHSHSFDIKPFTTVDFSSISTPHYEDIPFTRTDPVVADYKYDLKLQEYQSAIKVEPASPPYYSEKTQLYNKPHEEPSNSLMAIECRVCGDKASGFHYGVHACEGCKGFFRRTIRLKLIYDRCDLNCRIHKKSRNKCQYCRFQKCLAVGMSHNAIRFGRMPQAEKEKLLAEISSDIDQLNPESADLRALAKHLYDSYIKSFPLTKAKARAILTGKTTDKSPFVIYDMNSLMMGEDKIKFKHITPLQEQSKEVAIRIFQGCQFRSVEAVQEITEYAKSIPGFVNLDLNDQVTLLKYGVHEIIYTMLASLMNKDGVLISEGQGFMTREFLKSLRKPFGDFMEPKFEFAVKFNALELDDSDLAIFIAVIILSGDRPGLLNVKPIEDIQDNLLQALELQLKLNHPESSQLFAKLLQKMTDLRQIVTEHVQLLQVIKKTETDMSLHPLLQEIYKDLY
Protocol text: Agonist activity at PPARgamma (unknown origin) expressed in human HepG2 cells cotransfected with PPREaP2-tk at 50 ug/ml after 24 hrs by luciferase reporter gene assay relative to control
Type: cell-based
The source made the active and inactive calls. No cut-off for these calls is given here.

# Compound, System tested, Activity
rows = [
    ("COc1ccc2c(c1)OC[C@H](c1ccc(O)cc1O)[C@H]2O", "Peroxisome proliferator-activated receptor gamma (Homo sapiens)", "inactive"),
    ("O=c1cc(-c2ccc(O)cc2)oc2cc(O)ccc12", "Peroxisome proliferator-activated receptor gamma (Homo sapiens)", "inactive"),
    ("C[C@@H]1O[C@@H](Oc2cc(O)c3c(=O)c(O[C@@H]4O[C@@H](C)[C@H](O)[C@@H](O)[C@H]4O)c(-c4ccc(O)c(O)c4)oc3c2)[C@H](O)[C@H](O)[C@H]1O", "Peroxisome proliferator-activated receptor gamma (Homo sapiens)", "inactive"),
    ("O=C(O)CCc1ccccc1O[C@@H]1O[C@H](CO)[C@@H](O)[C@H](O)[C@H]1O", "Peroxisome proliferator-activated receptor gamma (Homo sapiens)", "inactive"),
    ("COc1ccc2c(c1)OC(OC)C(c1ccc(O)cc1O)[C@H]2O (single isomer, unassigned)", "Peroxisome proliferator-activated receptor gamma (Homo sapiens)", "inactive"),
]

----------
System tested: Peroxisome proliferator-activated receptor gamma (Homo sapiens) (UniProt P37231)
Protocol text: Agonist activity at PPARgamma (unknown origin) expressed in human HepG2 cells cotransfected with PPREaP2-tk at 12.5 ug/ml after 24 hrs by luciferase reporter gene assay relative to control
Type: cell-based
Calls of active or inactive are those of the source. The rule behind the calls is not given here.

# Compound, Activity
records = [
    ("C[C@@H]1O[C@@H](Oc2cc(O)c3c(=O)c(O[C@@H]4O[C@@H](C)[C@H](O)[C@@H](O)[C@H]4O)c(-c4ccc(O)c(O)c4)oc3c2)[C@H](O)[C@H](O)[C@H]1O", "inactive"),
    ("COc1ccc2c(c1)OC(OC)C(c1ccc(O)cc1O)[C@H]2O (single isomer, unassigned)", "inactive"),
    ("O=C(O)CCc1ccccc1O[C@@H]1O[C@H](CO)[C@@H](O)[C@H](O)[C@H]1O", "inactive"),
    ("O=c1cc(-c2ccc(O)cc2)oc2cc(O)ccc12", "inactive"),
    ("COc1ccc2c(c1)OC[C@H](c1ccc(O)cc1O)[C@H]2O", "inactive"),
]
